Measurement Protocol: in vivo
Experimental Context: cynomolgus monkey, im
Endpoint Name: half-life

Which half-life is reported for this molecule? Nc1ncnc2c([C@@H]3N[C@H](CO)[C@@H](O)[C@H]3O)c[nH]c12 < 5 min

====

Measurement Protocol: in vivo
Experimental Context: mouse, iv
Endpoint Name: half-life

Which half-life is reported for this molecule? Nc1ncnc2c([C@@H]3N[C@H](CO)[C@@H](O)[C@H]3O)c[nH]c12 [BCX4430] < 5 min

====

System: RVFV ZH5018
Measurement Protocol: microbe, parasite or virus in culture
Assay type: cell-based
Experimental Context: Rift Valley fever virus, HeLa
Endpoint Name: EC50

What is its EC50 for RVFV ZH5018? Entry: Nc1ncnc2c([C@@H]3N[C@H](CO)[C@@H](O)[C@H]3O)c[nH]c12 41.6 µM

====

Test system: HeLa cells
Experimental Context: human
Endpoint Name: CC50 (µM)
Number only, in µM; omit the unit.

Which CC50 is reported for this compound? Nc1ncnc2c([C@@H]3N[C@H](CO)[C@@H](O)[C@H]3O)c[nH]c12 242
